Test system: Staphylococcus aureus (ATCC 25923)
Type: cell-based
measurement.parameters: ATCC 25923, 24 h
Where a SMILES comes first, the peptide text is derived from it. The star is where a group is joined. Palmitoyl = CCCCCCCCCCCCCCCC(=O)*; Myristoyl = CCCCCCCCCCCCCC(=O)*
measured.endpoint: MBC Staphylococcus aureus

// worked examples, MBC Staphylococcus aureus included
1) CCCCCCCCCCCC(=O)N[C@@H](CCCCN)C(=O)N[C@@H](CCCCN)C(=O)N[C@@H](CCCCN)C(N)=O ... 1000 µg/mL
2) CCCCCCCCCCCCCC(=O)N[C@@H](CCCCN)C(=O)NCC(=O)N[C@@H](CCCCN)C(=O)NCC(N)=O [C14-KGKG-NH2] (Myristoyl-KGKG-NH2) ... 128 µg/mL
3) CCCCCCCCCCCCCC(=O)N[C@@H](CCCCN)C(=O)NCC(N)=O [C14-KG-NH2] (Myristoyl-Lys-Gly-NH2) ... 32 µg/mL

Entry CCCCCCCCCCCCCC(=O)N[C@@H](CCCCN)C(N)=O , system Staphylococcus aureus (ATCC 25923): what MBC Staphylococcus aureus was measured?
64 µg/mL

Follow-up item: CCCCCCCCCCCCCCCC(=O)N[C@@H](CCCCN)C(N)=O
512 µg/mL

Now the compound CCCCCCCCCCCC(=O)N[C@@H](CCCCN)C(=O)N[C@@H](CCCCN)C(N)=O
2000 µg/mL

How about CCCCCCCCCCCCCCCC(=O)N[C@@H](CCCCN)C(=O)N[C@@H](CCCCN)C(=O)N[C@@H](CCCCN)C(=O)N[C@@H](CCCCN)C(N)=O [C16-KKKK-NH2] (Palmitoyl-KKKK-NH2) ?
8 µg/mL

---

Test system: Enterococcus faecalis (ATCC 29212)
Assay type: cell-based
measurement.parameters: ATCC 29212, 18 h
Where a SMILES comes first, the peptide text is derived from it. The star is where a group is joined. Palmitoyl = CCCCCCCCCCCCCCCC(=O)*; Myristoyl = CCCCCCCCCCCCCC(=O)*; Lauroyl = CCCCCCCCCCCC(=O)*; Decanoyl = CCCCCCCCCC(=O)*; Octanoyl = CCCCCCCC(=O)*
Consider the following compounds and their measured MIC Enterococcus fecalis readings.

1) CCCCCCCCCCCCCC(=O)N[C@@H](CCCCN)C(=O)N[C@@H](CCCCN)C(=O)N[C@@H](CCCCN)C(=O)N[C@@H](CCCCN)C(N)=O [C14-KKKK-NH2] (Myristoyl-KKKK-NH2) ... 64 µg/mL
2) CCCCCCCC(=O)N[C@@H](CCCCN)C(=O)N[C@@H](CCCCN)C(=O)N[C@@H](CCCCN)C(=O)N[C@@H](CCCCN)C(N)=O [C8-KKKK-NH2] (Octanoyl-KKKK-NH2) ... 2000 µg/mL
3) CCCCCCCCCC(=O)N[C@@H](CCCCN)C(=O)NCC(N)=O [C10-KG-NH2] (Decanoyl-Lys-Gly-NH2) ... 1000 µg/mL

Reported MIC Enterococcus fecalis for CCCCCCCCCCCCCCCC(=O)N[C@@H](CCCCN)C(=O)NCC(N)=O [C16-KG-NH2] (Palmitoyl-Lys-Gly-NH2) : what is it?
16 µg/mL

What do you have for CCCCCCCCCCCCCC(=O)N[C@@H](CCCCN)C(=O)N[C@@H](CCCCN)C(=O)N[C@@H](CCCCN)C(N)=O ?
64 µg/mL

For CCCCCCCCCCCC(=O)N[C@@H](CCCCN)C(=O)N[C@@H](CCCCN)C(=O)N[C@@H](CCCCN)C(=O)N[C@@H](CCCCN)C(N)=O [C12-KKKK-NH2] (Lauroyl-KKKK-NH2) then?
512 µg/mL

Consider next the compound CCCCCCCCCCCCCC(=O)N[C@@H](CCCCN)C(N)=O in the same way.
64 µg/mL

Follow-up item: CCCCCCCCCCCCCC(=O)N[C@@H](CCCCN)C(=O)NCC(=O)N[C@@H](CCCCN)C(=O)NCC(N)=O [C14-KGKG-NH2] (Myristoyl-KGKG-NH2)
64 µg/mL

Try this compound too: CCCCCCCCCCCCCC(=O)N[C@@H](CCCCN)C(=O)NCC(N)=O [C14-KG-NH2] (Myristoyl-Lys-Gly-NH2)
32 µg/mL

Try this compound next: CCCCCCCCCCCCCCCC(=O)N[C@@H](CCCCN)C(=O)N[C@@H](CCCCN)C(=O)N[C@@H](CCCCN)C(=O)N[C@@H](CCCCN)C(N)=O [C16-KKKK-NH2] (Palmitoyl-KKKK-NH2)
16 µg/mL

How about this compound: CCCCCCCCCCCC(=O)N[C@@H](CCCCN)C(=O)N[C@@H](CCCCN)C(=O)N[C@@H](CCCCN)C(N)=O
512 µg/mL

Next compound up: CCCCCCCCCCCC(=O)N[C@@H](CCCCN)C(=O)NCC(=O)N[C@@H](CCCCN)C(=O)NCC(N)=O [C12-KGKG-NH2] (Lauroyl-KGKG-NH2)
512 µg/mL

Now the same for CCCCCCCCCCCCCCCC(=O)N[C@@H](CCCCN)C(=O)N[C@@H](CCCCN)C(=O)N[C@@H](CCCCN)C(N)=O
16 µg/mL
